From: patent US20180282430A1

Molecular target: T1, Human TFPI (tissue factor pathway inhibitor) (human, UniProt P10646 29-304, limits assumed)
T1 construct: Coated at 1 ug/ml on Maxisorb plates for the ELISA; For the Biacore work the human TFPI came from American Diagnostica
T1 sequence (looked up): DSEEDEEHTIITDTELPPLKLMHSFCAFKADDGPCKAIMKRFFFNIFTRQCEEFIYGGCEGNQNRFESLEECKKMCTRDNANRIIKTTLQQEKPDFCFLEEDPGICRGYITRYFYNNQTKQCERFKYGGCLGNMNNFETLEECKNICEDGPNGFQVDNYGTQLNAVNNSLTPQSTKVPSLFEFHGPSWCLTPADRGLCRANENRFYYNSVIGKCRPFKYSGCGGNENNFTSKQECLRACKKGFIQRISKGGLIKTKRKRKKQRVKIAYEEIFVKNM
Assay: ELISA on plate-coated human TFPI; Fab expression media bound, then 1 h at 37 C in 100 mM citrate pH 6.0; amplex red
Kindly supply the reported TFPI ELISA signal, pH 6.0 values for the records listed here.
One number for each entry.

| binder | measure-name | numeric-value |
| --- | --- | --- |
| 2A8-g200 Fab VH-Y32H (Fab, V domains shown, Member of the 2A8-g200 Fab histidine scanning library) VH: EVQLVESGGGLVQPGGSLRLSCAASGFTFSSHGMDWVRQAPGKGLEWVSSIRGSRGSTYYADSVKGRFTISRDNSKNTLYLQMNSLRAEDTAVYYCARLYRYWFDYWGQGTLVTVSS VL: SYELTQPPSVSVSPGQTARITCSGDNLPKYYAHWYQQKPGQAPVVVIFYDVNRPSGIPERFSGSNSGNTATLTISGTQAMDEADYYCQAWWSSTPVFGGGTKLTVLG | TFPI ELISA signal, pH 6.0 | 2580 |

Go through the items and report each one's TFPI ELISA signal, pH 6.0.
1. 2A8-g200 Fab VL-F48H (Fab, V domains shown, Member of the 2A8-g200 Fab histidine scanning library) VH: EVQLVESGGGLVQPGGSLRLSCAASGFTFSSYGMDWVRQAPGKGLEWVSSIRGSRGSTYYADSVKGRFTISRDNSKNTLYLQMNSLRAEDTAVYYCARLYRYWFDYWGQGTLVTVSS VL: SYELTQPPSVSVSPGQTARITCSGDNLPKYYAHWYQQKPGQAPVVVIHYDVNRPSGIPERFSGSNSGNTATLTISGTQAMDEADYYCQAWWSSTPVFGGGTKLTVLG
2. 2A8-g200 Fab VL-Y49H (Fab, V domains shown, Member of the 2A8-g200 Fab histidine scanning library) VH: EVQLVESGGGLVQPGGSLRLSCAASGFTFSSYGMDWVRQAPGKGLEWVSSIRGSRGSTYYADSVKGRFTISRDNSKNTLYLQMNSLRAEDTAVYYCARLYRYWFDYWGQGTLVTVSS VL: SYELTQPPSVSVSPGQTARITCSGDNLPKYYAHWYQQKPGQAPVVVIFHDVNRPSGIPERFSGSNSGNTATLTISGTQAMDEADYYCQAWWSSTPVFGGGTKLTVLG

Out:
1: 1550; 2: 2040
